Target: T1, hEGFR-ECD (human, UniProt P00533 25-645)
T1 construct: extracellular domain
Assay: direct phage ELISA, proteins coated at 2 µg/ml, phage-Fab supernatant, OD450;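 also: specificity test of dual-activity clones, with binding assessed across an antigen panel to check whether each recognises only its cognate target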

| binder | binding result |
| --- | --- |
| D1.5-121 (phage-displayed Fab clone) (Fab, V domains shown, EGFR/HER3 clone) VH: EVQLVESGGGLVQPGGSLRLSCAASGFTFTGNWIHWVRQAPGKGLEWVGEISPSGGYTDYADSVKGRFTISADTSKNTAYLQMNSLRAEDTAVYYCARESRVSYEAAMDYWGQGTLVTVSS VL: DIQMTQSPSSLSASVGDRVTITCRASQDVGSDLAWYQQKPGKAPKLLIYSASYLYSGVPSRFSGSGSGTDFTLTISSLQPEDFATYYCQQSDPEPYTFGQGTKVEIKR | binds |
